Experiment: solubility in water and organic solvents
Format: physicochemical
Settings: ethanol, 25 °C, organic solvent or mixture, read-out: solubility in ethanol
observed-property: solubility

>  <compound>
CN(C/C=C/C#CC(C)(C)C)Cc1cccc2ccccc12 [Example 1]

>  <solubility>
> 30 mg/mL

$$$$

Bench note: what solubility did CN(C/C=C/C#CC(C)(C)C)Cc1cccc2ccccc12 (racemic) [Example 5, Terbinafine DL-(±)-hydrogen malate] show?
> 50 mg/mL

###

Test: solubility in water and organic solvents
Type: physicochemical
Settings: water, 25 °C, water, read-out: solubility in water
observed-property: solubility

Bench note: what solubility did CN(C/C=C/C#CC(C)(C)C)Cc1cccc2ccccc12 (racemic) [Example 5, Terbinafine DL-(±)-hydrogen malate] show?
~7000 µg/mL

###

Assay: solubility in water and organic solvents
Format: physicochemical
Conditions: ethyl acetate, 25 °C, organic solvent or mixture, read-out: solubility in ethyl acetate
observed-property: solubility

Bench note: what solubility did CN(C/C=C/C#CC(C)(C)C)Cc1cccc2ccccc12 (racemic) [Example 5, Terbinafine DL-(±)-hydrogen malate] show?
~17 mg/mL
